Molecular target: Protein translocase subunit SecA (Escherichia coli (strain K12))
Experiment: Assay to Identify E. coli SecA ATPase Inhibitors
Assay type: functional
Set-up: scale not given: direction of the effect not stated beside the values
Conditions: 30 µM
Measured potencies and affinities stand elsewhere.
value_type: Percent Effect (%)
Give bare numbers, in %.

Worked cases, answers included:
- compound: "Cc1noc(Cl)c1CCC(=O)N1CCc2sccc2C1"
  target_of_assay: "Protein translocase subunit SecA (Escherichia coli (strain K12))"
  experimental_value: -5.38
- compound: "CN(CC(=O)Nc1ccc(Br)cn1)C(=O)Cc1ccc(O)cc1"
  target_of_assay: "Protein translocase subunit SecA (Escherichia coli (strain K12))"
  experimental_value: -6.43

Look up Percent Effect for the entries below, preserving their order.
1. Cc1cc(C)n(CCC(=O)N2CCCC(n3cncn3)C2)n1 (centres undefined)
2. CNc1nc(C2CCCN2C(C)=O)nc2c1CCN(CC1CC1)C2 (centres undefined)
3. O=C(N1CCC(Nc2cccnn2)CC1)C1(c2ccc(F)cc2)CC1
4. CN(C)S(=O)(=O)N1CCCC(c2cccc(Cc3ccccc3)n2)C1 (centres undefined)
5. CNC(=O)[C@@H]1C[C@H]2CN(Cc3ccco3)C[C@H]2N1C

-6.39
-3.68
-2.8
-0.482
-3.02

Look up Percent Effect for the entries below, preserving their order.
1. CC(Cn1cccn1)NC(=O)NCc1ccccn1 (centres undefined)
2. Cn1nc2c(cc1=O)CN(Cc1nnc(-c3ccco3)o1)CC2
3. FC(F)(F)c1nc(NC2CCCC2)c2ccccc2n1
4. COc1ccc(CC(=O)N2CCc3nnc(N(C)C)cc3C2)cc1F
5. O=C(c1ccccn1)N1Cc2nccn2CC(CN2CCOCC2)C1 (centres undefined)
6. Cc1ccn(-c2cccc(C(=O)N3CCCC(n4ccnc4C)C3)c2)n1 (centres undefined)

1: -2.65; 2: -3.79; 3: 1.99; 4: -3.64; 5: -4.41; 6: -0.853

====

Target: AMP-activated protein kinase, AMPK (Homo sapiens) (UniProt P54646+O43741+P54619+Q9UGJ0+Q9Y478+Q13131+Q9UGI9)
Assay: AMP-dependent Kinase enzyme assay. An in vitro enzyme assay that detects ADP turnover that is directly proportional to AMPK activity. This uses naive AMPK that is activated during the assay with MK-8722
Assay type: functional
Design: scale not given: direction of the effect not stated beside the values
Conditions: 30 µM
value_type: Percent Effect (%)
One number for each entry, in %.

Worked cases, answers included:
- compound: "COCCC(=O)Nc1nc2c(OC)cc(F)cc2s1"
  scale_unit: "%"
  Percent Effect: -1.47
- compound: "CC(=O)NCC(=O)Nc1cc(C)n(-c2ccc(Cl)cc2Cl)n1"
  scale_unit: "%"
  Percent Effect: 3.23

Look up Percent Effect for the entries below, preserving their order.
1. C[C@H](N)C(=O)N1CCC(c2[nH]ncc2-c2ccccc2)CC1
2. CCCN(CC(F)(F)F)S(=O)(=O)c1cc(C(N)=O)n(C)c1
3. COc1ccc2nc(CNC(=O)C3CC4(CCNCC4)CN3C)[nH]c2c1 (stereo not drawn)

1. -8.96
2. -4.23
3. -3.99

====

Target: Tyrosyl-tRNA synthetase, putative (Trypanosoma cruzi (strain CL Brener)) (UniProt Q4DSP6)
Sequence (Q4DSP6 as listed by the source): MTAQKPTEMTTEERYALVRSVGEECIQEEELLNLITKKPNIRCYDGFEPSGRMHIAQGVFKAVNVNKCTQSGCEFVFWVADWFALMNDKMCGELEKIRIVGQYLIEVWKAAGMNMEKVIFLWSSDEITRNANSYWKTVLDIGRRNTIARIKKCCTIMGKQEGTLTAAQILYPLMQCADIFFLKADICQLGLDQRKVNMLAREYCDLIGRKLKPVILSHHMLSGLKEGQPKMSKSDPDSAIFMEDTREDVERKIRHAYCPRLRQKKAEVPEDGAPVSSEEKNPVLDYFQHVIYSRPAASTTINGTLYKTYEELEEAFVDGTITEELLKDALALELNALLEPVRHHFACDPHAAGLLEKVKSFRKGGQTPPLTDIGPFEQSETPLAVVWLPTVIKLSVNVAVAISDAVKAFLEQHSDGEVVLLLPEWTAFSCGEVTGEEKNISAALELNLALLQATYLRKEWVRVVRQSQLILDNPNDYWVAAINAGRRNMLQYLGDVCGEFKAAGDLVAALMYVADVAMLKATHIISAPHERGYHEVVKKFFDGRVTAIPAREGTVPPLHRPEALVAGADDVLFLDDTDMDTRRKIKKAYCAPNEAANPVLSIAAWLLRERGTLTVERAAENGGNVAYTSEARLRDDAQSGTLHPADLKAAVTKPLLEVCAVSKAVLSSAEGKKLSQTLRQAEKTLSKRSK
Assay: Trypanosoma cruzi tyrosyl tRNA synthetase (TcYRS) _High Tyrosine SOP; note: in the data most compounds retested in dose-response had high values
Assay type: functional
Set-up: scale not given: direction of the effect not stated beside the values
Conditions: 30 µM
Exercise: state measured Percent Effect for each of the compounds provided.
Give bare numbers, in %.

- compound: "CC(C)(C)C(O)CN1CCN(C(=O)c2cccc3[nH]ncc23)CC1 (centres undefined)"
  experimental_value: 3.35
- compound: "Cn1ccnc1CN1CCOCC(Cc2ccccn2)C1 (centres undefined)"
  experimental_value: 1.06
- compound: "CC(CC#N)NC(=O)c1cc(Br)c2c(c1)OCCO2 (centres undefined)"
  experimental_value: 0.526
- compound: "CC(=O)N1CCC(c2cc(C(F)(F)F)n3ccnc3n2)CC1"
  experimental_value: 7.41
- compound: "COc1cc(S(=O)(=O)N2CCc3ccc(F)cc32)cc(C(=O)O)c1OC"
  experimental_value: -3.68
- compound: "CCOc1ncccc1NC(=O)NC1CCCN(c2ncccn2)C1 (centres undefined)"
  experimental_value: 11.8
- compound: "CCn1nc2c(cc1=O)CN(Cc1nc(-c3ccccn3)no1)CC2"
  experimental_value: 0.478
- compound: "COC(=O)C1CCN(C(=O)c2ccc(C)c(NS(C)(=O)=O)c2)CC1"
  experimental_value: 1.6

Look up Percent Effect for the entries below, preserving their order.
1. CC(C)=CCN1CCC(c2nccn2Cc2cscn2)CC1
2. Cc1cccc(CN2C(=O)CCC23CCN(Cc2cccn2C)CC3)n1
3. CNC(=O)[C@@H]1C[C@H]2CN(Cc3ccco3)C[C@H]2N1C
4. c1cc(-c2nc(CN3CCn4c(nnc4C4CC4)C3)cs2)cs1

1: 6.92; 2: 9.66; 3: 9.66; 4: 2.39

Look up Percent Effect for the entries below, preserving their order.
1. Cc1ccc(Cl)cc1N1CCC(CNC(=O)CC(F)(F)F)C1 (centres undefined)
2. CCCc1cc(CNC(=O)C2CCOc3ccccc3C2)on1 (centres undefined)
3. COCCN1C[C@H]2[C@@H](C1)N(C(=O)c1cccs1)CC[C@H]2OC
4. CC(C(=O)N1CCCC1)N1CCC(c2nccn2Cc2cscn2)CC1 (centres undefined)
5. Cc1cc2c(cc1C(=O)N1CC[C@H](CO)[C@@H](O)C1)OCCO2
6. O=c1cccnn1CC1CN(Cc2ccsc2)Cc2nccn2C1 (centres undefined)

1. -0.478
2. 5.85
3. 1.58
4. 6.92
5. 4.79
6. 14.2

Look up Percent Effect for the entries below, preserving their order.
1. Cc1nn(-c2ccccc2)c(C)c1CNC1CCc2ncnn2C1 (centres undefined)
2. Cc1nn(C)c(N(C)C)c1CNC(C)c1cccc(OC(C)C)c1 (centres undefined)
3. CCc1ncc(C(=O)N2CCOCC2c2c(C)n[nH]c2C)s1 (centres undefined)
4. O=C(O)c1cc(S(=O)(=O)N2CCOc3ccccc32)ccc1F
5. Cc1cccc(CN2CCC3(CCN(c4ccccn4)C3)C2=O)c1 (centres undefined)
6. O=C(Nc1cccc2c1CCCC2)C1CCCN1c1nccs1 (centres undefined)

1. 7.18
2. 3.92
3. -0.478
4. -0.478
5. 10.6
6. 8.13

====

Target: Sialic acid-binding Ig-like lectin 9 (Homo sapiens) (UniProt Q9Y336)
Sequence (Q9Y336 whole entry): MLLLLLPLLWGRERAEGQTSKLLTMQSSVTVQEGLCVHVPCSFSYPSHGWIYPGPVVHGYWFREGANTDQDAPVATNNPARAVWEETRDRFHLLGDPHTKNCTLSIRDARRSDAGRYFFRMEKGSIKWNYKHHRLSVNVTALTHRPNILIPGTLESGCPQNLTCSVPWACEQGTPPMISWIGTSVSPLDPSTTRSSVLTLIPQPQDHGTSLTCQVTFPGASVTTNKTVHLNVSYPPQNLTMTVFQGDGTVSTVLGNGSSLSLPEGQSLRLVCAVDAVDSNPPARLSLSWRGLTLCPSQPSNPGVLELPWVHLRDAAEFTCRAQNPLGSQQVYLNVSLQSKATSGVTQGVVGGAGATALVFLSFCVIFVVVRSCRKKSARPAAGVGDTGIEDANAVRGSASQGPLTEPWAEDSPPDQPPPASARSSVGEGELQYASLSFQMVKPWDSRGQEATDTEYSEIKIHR
Test: Hs-Siglec9 ALPHAscreen SOP 20170721
Set-up: scale not given: direction of the effect not stated beside the values
Conditions: 10 µM
Exercise: state measured Percent Effect for each of the molecules provided.
Give bare numbers, in %.

Worked cases, answers included:
- molecule: "CC(=O)NCCC(=O)NCc1cccnc1-n1cnc2ccccc21"
  Percent Effect / %: 2.93
- molecule: "Cc1cnn(CC2CCCN2C(=O)c2ccc(C(N)=O)cn2)c1 (centres undefined)"
  Percent Effect / %: 2.02

Look up Percent Effect for the entries below, preserving their order.
1. CC(C)NC(=O)C(c1ccccc1)N1CCn2c(nnc2C2CC2)C1 (centres undefined)
2. COCC1CC2(CCN(Cc3cnn(C)c3)CC2)CN1C(C)C (centres undefined)
3. c1cc(-c2nc(CN3CCn4c(nnc4C4CC4)C3)cs2)cs1
4. Cn1ccc(C(=O)NCc2cccc(NC(=O)C3CCC3)c2)cc1=O
5. COCCN1CCN(Cc2cccc(OCC(N)=O)c2)CC1C (centres undefined)

1: -10.1; 2: -6.16; 3: -7.08; 4: 5.5; 5: -0.422

Look up Percent Effect for the entries below, preserving their order.
1. CCS(=O)(=O)N1CCC2(CC1)CN(Cc1ccccn1)C(=O)CO2
2. N#Cc1cccc(N2CC3(CCN(C(=O)c4cccnc4)C3)CC2=O)c1 (centres undefined)
3. CC(C)N1CCCC2(CCN(C(=O)CCCn3cncn3)C2)C1=O (centres undefined)
4. CCCn1ncc2c(C(=O)Nc3n[nH]c(SC)n3)cc(C3CC3)nc21

1: 1.21; 2: -3.3; 3: 6.04; 4: -0.527

Look up Percent Effect for the entries below, preserving their order.
1. Cn1cc(NC(=O)N2CCC(CN3CCCC3)CC2)ccc1=O
2. CC1(C)OCC(CNC(=O)c2cnn(-c3ccc(Cl)cc3)c2N)O1 (centres undefined)
3. CC(C)c1nc(C2CCCN2CC(=O)Nc2nncs2)no1 (centres undefined)
4. Cc1nn(-c2ccccc2)c(C)c1CNC1CCc2ncnn2C1 (centres undefined)
5. CCCN1CCCn2nc(CNS(=O)(=O)c3cccc(C#N)c3)cc2C1
6. Cc1cc(NC(=O)NCC2CCOC2)no1 (centres undefined)

7.22
-9.2
8.36
7.05
11.2
0.0318

Look up Percent Effect for the entries below, preserving their order.
1. COCCN1CCCN(C(=O)NC(C)Cn2ccnc2)CC1 (centres undefined)
2. Cc1cccnc1CNCC1(O)CCCN(Cc2ccc(F)cc2)C1=O (centres undefined)
3. COc1cccc(-n2nnc(C(=O)N3CCNC(=O)C3)c2C)c1
4. Cc1noc(C)c1CN(C)C(=O)NC1CCN(c2ncccn2)CC1
5. COc1cc(CNCc2ccc(NC(=O)NC(C)C)cc2)cc(OC)c1
6. COc1ncccc1CNC(=O)c1cccc(C)n1
7. Cc1cnn(CC2CCCCN2CCn2cncn2)c1 (centres undefined)

1: 12.5; 2: 19.1; 3: -22.9; 4: -17.2; 5: 5.02; 6: -18.5; 7: -7.29

Each recorded value in this set is attributed to ChEMBL document CHEMBL3988442.
